EXPERIMENTAL TARGET: 5-HT2A receptor (Homo sapiens)
Construct: expressed in transfected cells
TEST PROTOCOL: Functional detection experiment of 5-HT2A receptor (cultured cells), calcium influx assay
Type: cell-based
EXPERIMENTAL CONDITIONS: cultured CHO-K1/5-HT2A cells, calcium influx (FLIPR), antagonist mode vs agonist EC80; read-out: 5-HT2A IC50
pIC50: −log10 of the molar value.
# binarize pIC50: threshold 8 inclusive, high side yes (1), low side no (0)

Solved entries (count: 3):
COMPOUND | EXPERIMENTAL TARGET | ANSWER LABEL
CN1C(=O)CN2c3c(cccc31)C1CN(CCCC(=O)c3ccc(F)cc3)CCC12 (centres unmarked) [Comparative embodiment 1, reference compound] | 5-HT2A receptor (Homo sapiens) | no (0)
CN1C(=O)CN2c3c1cccc3[C@@]1(C)CN(CCCC(=O)c3ccc(F)cc3)CC[C@@H]21 [Embodiment 1-B] | 5-HT2A receptor (Homo sapiens) | no (0)
CN1CCN2c3c(cccc31)[C@@H]1CN(CCCC(=O)c3ccc(F)cc3)CC[C@@H]12 [ITI-007, Lumateperone, reference compound] | 5-HT2A receptor (Homo sapiens) | yes (1)

Now look at this one.
Query: Record CN1C(=O)CN2c3c1cccc3[C@]1(C)CN(CCCC(=O)c3ccc(F)cc3)CC[C@H]21 [Embodiment 1-A] ; criterion: pIC50 no lower than 8. Met?
Result: yes (1)

----------
# AUC(0-inf) per record follows
TEST PROTOCOL: PK test on ICR mice
Assay type: in vivo
EXPERIMENTAL CONDITIONS: mouse; male ICR mice, oral gavage, 5 mg/kg single dose, plasma
// return numeric value only (unit: ng·h/mL, not printed)

COMPOUND | OBSERVED VALUE
CN1CCN2c3c(cccc31)[C@@H]1CN(CCCC(=O)c3ccc(F)cc3)CC[C@@H]12 [ITI-007, Lumateperone, reference compound] | 59.1

Query: Which AUC(0-inf) value is on record for CN1C(=O)CN2c3c1cccc3[C@]1(C)CN(CCCC(=O)c3ccc(F)cc3)CC[C@H]21 ?
Result: 190

----------
EXPERIMENTAL TARGET: 5-HT2A receptor (Homo sapiens, UniProt P28223)
Construct: expressed in transfected cells
Sequence (P28223 whole entry): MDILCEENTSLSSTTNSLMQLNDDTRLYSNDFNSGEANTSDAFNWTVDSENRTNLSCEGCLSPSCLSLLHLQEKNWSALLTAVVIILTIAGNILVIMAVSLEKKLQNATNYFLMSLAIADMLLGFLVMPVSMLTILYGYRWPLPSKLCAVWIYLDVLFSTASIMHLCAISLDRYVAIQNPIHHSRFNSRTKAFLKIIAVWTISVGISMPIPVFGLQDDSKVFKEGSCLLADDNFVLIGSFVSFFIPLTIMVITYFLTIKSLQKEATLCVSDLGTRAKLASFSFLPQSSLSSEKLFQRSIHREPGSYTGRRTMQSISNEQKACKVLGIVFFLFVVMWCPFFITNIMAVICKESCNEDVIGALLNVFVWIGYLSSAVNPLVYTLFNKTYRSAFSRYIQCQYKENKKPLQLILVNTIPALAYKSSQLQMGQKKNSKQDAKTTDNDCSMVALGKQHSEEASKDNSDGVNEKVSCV
TEST PROTOCOL: Functional detection experiment of 5-HT2A receptor (cultured cells), calcium influx assay
Format: cell-based
MEASURED ATTRIBUTE: pIC50
Would you please state pIC50, meaning minus log10 of the concentration in mol/L, as a bare number?

Solved entries:
MOLECULE | OBSERVED VALUE
CN1CCN2c3c1cccc3C1(C)CN(CCCC(=O)c3ccc(F)cc3)CCC21 (stereo not drawn) [Embodiment 7] | 8.46
CN1C(=O)CN2c3c1cccc3C1(C)CN(CCCC(=O)c3ccc(F)cc3)CCC21 (stereo not drawn) [Embodiment 1] | 8.43

API: the following record is the query input.
Query: Which pIC50 value is on record for CN1C(=O)C(C)(C)N2c3c1cccc3C1(C)CN(CCCC(=O)c3ccc(F)cc3)CCC21 (stereo not drawn) [Embodiment 4] ?
Result: 7.71

----------
# AUC(0-t) per record follows
TEST PROTOCOL: PK test on ICR mice
Format: in vivo
EXPERIMENTAL CONDITIONS: mouse; male ICR mice, oral gavage, 5 mg/kg single dose, plasma
// return numeric value only (unit: ng·h/mL, not printed)

COMPOUND | U | AUC(0-t)
CN1CCN2c3c(cccc31)[C@@H]1CN(CCCC(=O)c3ccc(F)cc3)CC[C@@H]12 [ITI-007, Lumateperone, reference compound] | ng·h/mL | 39.3

API: the following record is the query input.
Query: Which AUC(0-t) value is on record for CN1C(=O)CN2c3c1cccc3[C@]1(C)CN(CCCC(=O)c3ccc(F)cc3)CC[C@H]21 ?
Result: 155

----------
TEST PROTOCOL: PK test on ICR mice
Format: in vivo
EXPERIMENTAL CONDITIONS: mouse; male ICR mice, oral gavage, 5 mg/kg single dose, plasma
# Tmax per record follows
// return numeric value only (unit: min, not printed)

MOLECULE | MEASURED ATTRIBUTE | U | OBSERVED VALUE
CN1C(=O)CN2c3c1cccc3[C@]1(C)CN(CCCC(=O)c3ccc(F)cc3)CC[C@H]21 [Embodiment 1-A] | Tmax | min | 10.2

API: the following record is the query input.
Query: Which Tmax value is on record for CN1CCN2c3c(cccc31)[C@@H]1CN(CCCC(=O)c3ccc(F)cc3)CC[C@@H]12 [ITI-007, Lumateperone, reference compound] ?
Result: 16.8

----------
TEST PROTOCOL: PK test on ICR mice
Assay type: in vivo
EXPERIMENTAL CONDITIONS: mouse; male ICR mice, oral gavage, 5 mg/kg single dose, plasma
MEASURED ATTRIBUTE: Cmax

COMPOUND | MEASURED ATTRIBUTE | OBSERVED VALUE
CN1C(=O)CN2c3c1cccc3[C@]1(C)CN(CCCC(=O)c3ccc(F)cc3)CC[C@H]21 [Embodiment 1-A] | Cmax | 109 ng/mL

Query: Which Cmax value is on record for CN1CCN2c3c(cccc31)[C@@H]1CN(CCCC(=O)c3ccc(F)cc3)CC[C@@H]12 [ITI-007, Lumateperone, reference compound] ?
Result: 13.5 ng/mL

----------
EXPERIMENTAL TARGET: D2L receptor (Homo sapiens)
Sequence (P14416 whole entry): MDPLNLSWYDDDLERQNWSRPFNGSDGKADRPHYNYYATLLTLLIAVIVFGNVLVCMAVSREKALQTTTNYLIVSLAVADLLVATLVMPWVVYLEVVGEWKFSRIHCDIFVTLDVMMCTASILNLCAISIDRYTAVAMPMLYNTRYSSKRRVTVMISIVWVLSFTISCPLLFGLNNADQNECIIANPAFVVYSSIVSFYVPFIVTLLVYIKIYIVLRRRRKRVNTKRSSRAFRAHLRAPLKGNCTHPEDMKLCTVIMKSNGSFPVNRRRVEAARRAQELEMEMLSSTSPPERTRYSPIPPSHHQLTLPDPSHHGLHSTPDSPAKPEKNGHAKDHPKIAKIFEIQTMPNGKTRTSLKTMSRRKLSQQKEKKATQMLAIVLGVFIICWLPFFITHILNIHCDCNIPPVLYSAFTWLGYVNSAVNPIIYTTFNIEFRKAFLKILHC
TEST PROTOCOL: Functional activity test on D2L receptor, cAMP detection (Gi antagonist test)
EXPERIMENTAL CONDITIONS: cryopreserved CHO-K1/D2L/Gα15 cells, forskolin + dopamine EC90
MEASURED ATTRIBUTE: pIC50
Would you please state pIC50, meaning minus log10 of the concentration in mol/L, as a bare number?

Query: Request: pIC50, test system D2L receptor (Homo sapiens), entry CN1C(=O)CN2c3c(cccc31)C1CN(CCCC(=O)c3ccc(F)cc3)CCC12 (stereo not drawn) [Comparative embodiment 1, reference compound]
Result: 6.70

----------
EXPERIMENTAL TARGET: D2S receptor (Homo sapiens, UniProt P14416)
Sequence (P14416 1-414 isoform P14416-2): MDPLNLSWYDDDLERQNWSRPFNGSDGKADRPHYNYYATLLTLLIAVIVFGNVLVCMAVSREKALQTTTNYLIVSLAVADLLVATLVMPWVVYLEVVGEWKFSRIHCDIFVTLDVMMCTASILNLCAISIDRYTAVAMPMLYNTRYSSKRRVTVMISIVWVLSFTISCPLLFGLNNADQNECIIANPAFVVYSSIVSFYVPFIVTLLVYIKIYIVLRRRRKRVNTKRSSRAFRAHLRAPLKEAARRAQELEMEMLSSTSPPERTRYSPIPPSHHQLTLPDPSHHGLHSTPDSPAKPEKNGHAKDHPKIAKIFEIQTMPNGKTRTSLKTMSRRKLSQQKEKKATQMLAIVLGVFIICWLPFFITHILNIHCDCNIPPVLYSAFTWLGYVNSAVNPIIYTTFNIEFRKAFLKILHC
TEST PROTOCOL: Functional activity test on D2S receptor, cAMP detection (Gi antagonist test)
EXPERIMENTAL CONDITIONS: cultured HEK293/D2S cells, forskolin + dopamine EC90
MEASURED ATTRIBUTE: pIC50
Would you please state pIC50, meaning minus log10 of the concentration in mol/L, as a bare number?

COMPOUND | EXPERIMENTAL TARGET | pIC50
CCN1C(=O)CN2c3c1cccc3C1(C)CN(CCCC(=O)c3ccc(F)cc3)CCC21 (stereo not drawn) | D2S receptor (Homo sapiens, UniProt P14416) | 6.68
CN1CCN2c3c(cccc31)[C@@H]1CN(CCCC(=O)c3ccc(F)cc3)CC[C@@H]12 [ITI-007, Lumateperone, reference compound] | D2S receptor (Homo sapiens, UniProt P14416) | 6.46

API: the following record is the query input.
Query: Which pIC50 value is on record for CN1C(=O)CN2c3c1cccc3C1(C)CN(CCCC(=O)c3ccc(F)cc3)CCC21 (stereo not drawn) ?
Result: 7.02

----------
TEST PROTOCOL: PK test on ICR mice
Format: in vivo
EXPERIMENTAL CONDITIONS: mouse; male ICR mice, oral gavage, 5 mg/kg single dose, plasma
MEASURED ATTRIBUTE: half-life (h)
// return numeric value only (unit: h, not printed)

COMPOUND | U | half-life
CN1CCN2c3c(cccc31)[C@@H]1CN(CCCC(=O)c3ccc(F)cc3)CC[C@@H]12 [ITI-007, Lumateperone, reference compound] | h | 5

Query: Which half-life value is on record for CN1C(=O)CN2c3c1cccc3[C@]1(C)CN(CCCC(=O)c3ccc(F)cc3)CC[C@H]21 ?
Result: 3.14

----------
EXPERIMENTAL TARGET: 5-HT2A (CHO-K1/5HT2A cells) (Homo sapiens, UniProt P28223)
Construct: expressed in transfected cells; host or cells: CHO-K1 (CHO-K1/5HT2A, cryopreserved cells)
TEST PROTOCOL: Functional activity test on receptor (cryopreservation cells), calcium FLIPR, 5-HT2A
Type: cell-based
MEASURED ATTRIBUTE: pIC50
Would you please state pIC50, meaning minus log10 of the concentration in mol/L, as a bare number?

Query: Which pIC50 value is on record for CN1C(=O)CN2c3c1cccc3C1(C)CN(CCCC(=O)c3ccc(F)cc3)CCC21 (stereo not shown) [Embodiment 1] ?
Result: 7.30

----------
# IC50 per record follows
EXPERIMENTAL TARGET: D2 (CHO-K1/D2L/Gα15 cells) (Homo sapiens, UniProt P14416)
Sequence (P14416 whole entry): as the sequence (P14416 whole entry) above
TEST PROTOCOL: Functional activity test on receptor (cryopreservation cells), calcium FLIPR, D2
EXPERIMENTAL CONDITIONS: cryopreserved CHO-K1/D2L/Gα15 cells, calcium fluorescence (FLIPR), antagonist mode vs dopamine EC80
// return numeric value only (unit: nM, not printed)

COMPOUND | U | IC50
CN1CCN2c3c(cccc31)[C@@H]1CN(CCCC(=O)c3ccc(F)cc3)CC[C@@H]12 [ITI-007, Lumateperone, reference compound] | nM | 569

API: the following record is the query input.
Query: Which IC50 value is on record for CN1C(=O)CN2c3c1cccc3C1(C)CN(CCCC(=O)c3ccc(F)cc3)CCC21 (centres unmarked) [Embodiment 1] ?
Result: 662
